biological target: Mcl-1 (Homo sapiens); construct: myc-Mcl-1 SPOT array & FP; made in house; experiment: LUMIER full-length protein interaction; format: binding; details: LUMIER results for Mcl-1; Z-score relative to Gaussian fit of the data; experiment 1, duplicate 2
Kindly state z-score 1.2 for each of the entries shown.
One number for each entry.

Below, each entry is followed by its recorded z-score 1.2 result.
>  <substance>
FADD (APGEEDLCAAFNVICDNVGKDWRRLA)

>  <recorded_measurement>
0.7662

$$$$
>  <substance>
NRN1L (DTIYQGFAECLIRLGDSMGRGGELET)

>  <recorded_measurement>
1.162

$$$$
>  <substance>
SIPA1 (TAGLRPGARLLRVCGQTLPSLRPEAA)

>  <recorded_measurement>
0.6268

$$$$
>  <substance>
PPAT (RLRQLGVAKKFGVLSDNFKGKRIVLV)

>  <recorded_measurement>
0.1831

$$$$
>  <substance>
DPF3 (SCMATVIHNPLKALGDQFYKEAIEHC)

>  <recorded_measurement>
0.1193

$$$$
>  <substance>
PRDX4 (LDFTFVCPTEIIAFGDRLEEFRSINT)

>  <recorded_measurement>
-0.5708

$$$$
>  <substance>
DSN1 (RAKASSLSEELKHFADGLETDGTLQK)

>  <recorded_measurement>
-0.5012

$$$$
>  <substance>
TMEM184C (SDIRDDISEQVRHVGRTVRGHPRKKL)

>  <recorded_measurement>
0.404

$$$$
>  <substance>
CYBB (APEEDFFSIHIRIVGDWTEGLFNACG)

>  <recorded_measurement>
0.6104

$$$$
>  <substance>
FOXI1 (PDKRLTLSQIYQYVADNFPFYNKSKA)

>  <recorded_measurement>
0.03188

$$$$

Provide each entry's z-score 1.2 from the list below.
1. FBXL3 (CHGLRELALNYHLLSDELLLALSSEK)
2. P2RX7 (QCPIFRLGDIFRETGDNFSDVAIQGG)

1: -0.6557; 2: -0.04596

Provide each entry's z-score 1.2 from the list below.
1. HEXDC (VLELHPGAQRLHIGCDEVYYLGEGEA)
2. SMPD2 (PYLSKHRADRMRRLGDFLNQESFDLA)
3. IPO5 (SEIMHSFAKCIEVMGDGCLNNEHFEE)
4. PRCP (DDMFEPHSWNLKELSDDCFQQWGVRP)
5. BCL2L11 (MRPEIWIAQELRRIGDEFNAYYARRV)
6. GBP6 (NDDTPWIARTLDNLADELTAILSAPA)
7. ACN9 (LQLHRVLPPDLKSLGDQYVKDEFRRH)
8. RNF160 (WLKGDILGEKLVNLADCLCNEDLESR)

1. -0.6103
2. -0.1967
3. 1.584
4. 0.7633
5. 9.774
6. 0.7158
7. 0.7914
8. 0.2603

Provide each entry's z-score 1.2 from the list below.
1. CASP8 (PFKKMDFSRNLYDIGEQLDSEDLASL)
2. TAP1 (MSILTIASAVLEFVGDGIYNNTMGHV)
3. PCNXL2 (LLDFFMVSILFSKLGDLLHKLQFVLT)
4. STK11IP (DSLLWKLAGLLRESGDVVLSGCSTLS)
5. RBL1 (WTLFVYTKGNFRMIGDDLVNSYHLLL)
6. PRKD3 (IQENVDISTVYQIFADEVLGSGQFGI)

1: -0.8504; 2: -0.7174; 3: -1.056; 4: 0.4828; 5: 0.3355; 6: 0.6899

---

Target: Bcl-w (Homo sapiens, UniProt Q92843, Q133R)
Construct: myc-Bcl-w SPOT array & FP; made in house
Sequence (Q92843 with tags, fused parts or gaps Q133R): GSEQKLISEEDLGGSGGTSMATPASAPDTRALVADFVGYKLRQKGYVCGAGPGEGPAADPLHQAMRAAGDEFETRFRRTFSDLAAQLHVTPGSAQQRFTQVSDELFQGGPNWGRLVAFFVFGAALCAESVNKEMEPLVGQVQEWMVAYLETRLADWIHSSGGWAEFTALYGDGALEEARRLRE
Test: Fluorescence polarization direct binding
Settings: FP direct binding; 10 nM FAM-labeled peptide, receptor titrated; 25°C, pH 7.8; fit of all replicate titrations; X+number in a cell = highest concentration (nM) measured with no binding detected, given here as >; SPNS1 fit to raw fluorescence; read-out: Best-fit KD, Bcl-w
No end group written: not given here.
quantity_name: Kd (nM)
One number for each entry, in nM.

>  <substance>
GDSVLARMLRELGDSLRRPQLRL-NH2 [SLC19A1]

>  <quantity_name>
Kd

>  <recorded_measurement>
18

$$$$
>  <substance>
ATRRLSGFLRTLADRLEGTKELL-NH2 [MINA]

>  <quantity_name>
Kd

>  <recorded_measurement>
1230

$$$$
>  <substance>
FTGNNTAVQELKRVSEQFTATFRRKA-NH2 [TUBB4Q]

>  <quantity_name>
Kd

>  <recorded_measurement>
2490

$$$$

Provide each entry's Kd from the list below.
1. LMARPAVALHFQSIADGFKEAVRYVL-NH2 [SOS2]
2. DARDYAVVLRKYADKIYSISMKH-NH2 [FOLH1]
3. EVLAGPLAQRLSHIAEDVGRLVKKSR-NH2 [ARHGAP4]
4. KKMTLSEIYRWIADNFPYYKNAG-NH2 [FOXJ2]
5. ELQELARKLQELADASENLLTEN-NH2 [TXNDC11]
6. RSMVFARHLREVGDEFRSRHLNS-NH2 [POFUT2]

1. 5380
2. 907
3. 749
4. 85
5. 249
6. 98

# substance RYRHGAPAEQLRHLADMLTTKWATLQ-NH2 [PLEKHH1] ; its Kd = 1400

---

target: Bcl-xL (Homo sapiens, UniProt Q07817); construct: myc-Bcl-xL SPOT array & FP; made in house; assay: LUMIER full-length protein interaction; assay type: binding; conditions: LUMIER results for Bcl-xL; Z-score relative to Gaussian fit of the data; experiment 1, duplicate 2
Sequence (Q07817 with tags, fused parts or gaps): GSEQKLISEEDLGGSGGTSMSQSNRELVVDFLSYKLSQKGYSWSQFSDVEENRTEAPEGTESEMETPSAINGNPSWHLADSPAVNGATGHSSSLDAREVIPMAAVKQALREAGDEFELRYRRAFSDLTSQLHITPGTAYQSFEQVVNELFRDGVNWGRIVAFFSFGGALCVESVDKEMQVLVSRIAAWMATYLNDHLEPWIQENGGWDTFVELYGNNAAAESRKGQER
Kindly state z-score 1.2 for each of the entries shown.
Give bare numbers.

>  <substance>
NRN1L (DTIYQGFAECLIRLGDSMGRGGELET)

>  <z-score 1.2>
-2.494

$$$$
>  <substance>
TMEM214 (SFLSAHCASHLAWFGDSLTSLSQRLQ)

>  <z-score 1.2>
-0.2947

$$$$
>  <substance>
IPO5 (SEIMHSFAKCIEVMGDGCLNNEHFEE)

>  <z-score 1.2>
-0.8907

$$$$
>  <substance>
SGCA (LFWTPLLVVLLAGLGDTEAQQTTLHP)

>  <z-score 1.2>
0.5458

$$$$
>  <substance>
WRAP53 (RKDAELLCWDLRQSGYPLWSLGREVT)

>  <z-score 1.2>
-0.01936

$$$$

Provide each entry's z-score 1.2 from the list below.
1. ZNF295 (ERLKGQLCDVLLIVGDQKFRAHKNVL)
2. DPF3 (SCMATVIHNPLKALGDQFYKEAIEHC)
3. C7orf26 (FDHMVPLVEEINRLADELNPLNASQE)

[-1.979, 0.09731, 0.5183]

Provide each entry's z-score 1.2 from the list below.
1. FBXL3 (CHGLRELALNYHLLSDELLLALSSEK)
2. DSN1 (RAKASSLSEELKHFADGLETDGTLQK)
3. P2RX7 (QCPIFRLGDIFRETGDNFSDVAIQGG)
4. FUT8 (KKLKNLEGNELQRHADEFLLDLGHHE)

[-1.2734, 0.4795, -0.6775, -2.609]

---

Kindly state pKd for each of the entries shown.
Biological target: Mcl-1 (Homo sapiens, UniProt Q07820)
Construct: myc-Mcl-1 SPOT array & FP; made in house
Sequence (Q07820 with tags, fused parts or gaps): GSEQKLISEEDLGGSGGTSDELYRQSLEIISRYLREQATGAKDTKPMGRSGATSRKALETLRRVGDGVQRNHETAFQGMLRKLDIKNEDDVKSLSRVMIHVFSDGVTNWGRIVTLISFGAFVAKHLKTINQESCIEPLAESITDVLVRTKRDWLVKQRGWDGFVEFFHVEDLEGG
Assay: Fluorescence polarization direct binding
Settings: Binder class, Mcl-1, benchmark classification of peptides newly characterized in this study
Description: Peptides were purified by reverse-phase HPLC using a C18 column and a linear water/acetonitrile gradient. We re-analyzed the purified peptide by mass spectrometry if there was not a single well-defined peak in HPLC chromatogram. Fluorescence polarization (FP) assays were done at 25°C in assay buffer (20 mM NaPO4, 50 mM NaCl, 1 mM EDTA, 0.001% Triton X (v/v), pH 7.8). […] Anisotropy was measured using a Spectramax M5 plate reader from Molecular Devices. […]
pKd: −log10 of the molar value. No end group written: not given here.

Below, each entry is followed by its recorded pKd result.
>  <substance>
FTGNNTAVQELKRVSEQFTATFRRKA-NH2 [TUBB4Q]

>  <system_under_test>
Mcl-1 (Homo sapiens, UniProt Q07820)

>  <recorded_measurement>
> 6.00

$$$$
>  <substance>
RSMVFARHLREVGDEFRSRHLNS-NH2 [POFUT2]

>  <system_under_test>
Mcl-1 (Homo sapiens, UniProt Q07820)

>  <recorded_measurement>
< 5.00

$$$$
>  <substance>
ELQELARKLQELADASENLLTEN-NH2 [TXNDC11]

>  <system_under_test>
Mcl-1 (Homo sapiens, UniProt Q07820)

>  <recorded_measurement>
5.00 to 6.00

$$$$

Provide each entry's pKd from the list below.
1. AWGKFGGAFARYADEMKEIQERQ-NH2 [PURB]
2. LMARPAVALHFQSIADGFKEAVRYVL-NH2 [SOS2]
3. RLVQQSKALKELADELQERAQRP-NH2 [TRIM58]
4. THEEVVHLLRNAGDEVTITVEYL-NH2 [SNTG2]
5. ATRRLSGFLRTLADRLEGTKELL-NH2 [MINA]

["< 5.00", "< 5.00", "< 5.00", "> 6.00", "< 5.00"]
